I'd be grateful if you could share measured LC retention time for these entries.
- assay.method.text: RP, Restek Raptor Biphenyl, 100 × 2.1 mm, 2.7 µm, 50 °C, 0.4 mL/min, estimated dead time 0.55 min; A: water + 0.1% formic acid, pH 3; B: methanol + 0.1% formic acid, pH 3; gradient (min/%B) 0/5 1.12/5 6.41/99.5 10.01/99.5
- recorded.conditions: stereoisomer not certain
Structures can show the parent of a compound that is named as a salt.
Give the number; min is assumed, so skip it.

Query block: Return value of LC retention time for input CC1=C(C(=O)Nc2ccccc2)SCCO1 , no commentary.
Result block: 5.79

Query block: Name the recorded LC retention time of the molecule listed here: O=C(O)CCCc1c[nH]c2ccccc12
Result block: 4.97

Query block: Name the recorded LC retention time of the molecule listed here: O=C(O)c1cc(=O)c2cccc(O)c2[nH]1
Result block: 3.14

Query block: Find the measured LC retention time of C[C@H](CCC(=O)O)[C@H]1CC[C@H]2[C@@H]3CC[C@@H]4CC(=O)CC[C@]4(C)[C@H]3CC[C@]12C and report it.
Result block: 6.93

Query block: Identify the reported LC retention time for the following entry. CCCCCC=CCC=CCC=CCC=CCC=CCCC(=O)O [all-cis-4,7,10,13,16-Docosapentaenoic acid]
Result block: 6.7

Query block: Kindly indicate its recorded LC retention time. Item: O=c1cc[nH]c(=O)[nH]1
Result block: 0.702

Query block: Consider the molecule CCC(C)C(=O)NCC(=O)O (centres undefined) . State its measured LC retention time.
Result block: 2.83

Query block: Please supply the value of reported LC retention time for the item CC(=O)N[C@@H](CC(=O)O)C(=O)O
Result block: 0.77

Query block: Look up and state reported LC retention time for O=C(O)Cc1c[nH]c2ccccc12
Result block: 4.19

Query block: Give LC retention time for CC1(C(=O)Nc2ccc(O)c(Cl)c2Cl)CCCCC1
Result block: 5.83

Query block: Give LC retention time for NCC(=O)CCC(=O)O [5-AMINOLEVULINATE]
Result block: 1.05

Query block: Input Nc1nc2c(ncn2C2CC(O)C(COP(=O)(O)OP(=O)(O)O)O2)c(=O)[nH]1 (centres undefined) , output reported LC retention time.
Result block: 0.695

Query block: Retrieve LC retention time measured for Cc1c(=O)c(=O)c2c3c[nH]c4c(C)c(=O)c(=O)c(c5c[nH]c1c52)c43 and print it.
Result block: 5.67

Query block: Determine its reported LC retention time: NC(=O)Cc1c[nH]c2ccccc12 [INDOLE-3-ACETAMIDE]
Result block: 3.75

Query block: Provide one value: measured LC retention time of CC(=O)C1CCC2C3CC=C4CC(OS(=O)(=O)O)CCC4(C)C3CCC12C (centres undefined) [PREGNENOLONE SULFATE]
Result block: 6.51

Query block: State its LC retention time: CCCCCCCCC=CCCCCCCCCCCCC(=O)O
Result block: 6.84

Query block: Give LC retention time for the following molecule: O=C(O)C=Cc1c[nH]c2ccccc12
Result block: 4.71

Query block: Complete the entry with LC retention time for O=C(O)CCCCC(=O)O
Result block: 2.5

Query block: Tell me measured LC retention time for CCCCCCSCC(NC(=O)CCC(N)C(=O)O)C(=O)NCC(=O)O (centres undefined) please.
Result block: 4.59

Cited source for all entries: the RepoRT retention time repository
